- Target: IsdB:Hb complex (Y165A IsdB, oxyHb) (Homo sapiens, UniProt P68871+P69905)
- Construct: made in house
- Test protocol: IsdB-based immunoassay for IsdB:Hb complex formation (screening of potential inhibitors)
- Format: binding, Staphylococcus aureus IsdB; human Hb
- Condition info: commercial compounds at 1 mM, 30 µM oxyHb, relative to negative control
- Protocol: Commercial and synthesized compounds were tested at 1 mM concentration. Figure 6 Screening of the in silico identified compounds by the IsdB-based immunoassay. […] The lines at 100% and 50%, drawn as reference, were calculated from the absorbance signal at 450 nm measured on the negative control well (i.e. oxyHb incubated without the addition of compounds). Each measurement is the average of at least 2 replicates. Each measurement is the average of at least two replicates. […]
Measurement label: average percent of Hb bound to IsdB

[[record]]
compound = "Cc1[nH]ncc1C(=O)NCc1cc(OC2CCNC2)ccn1 (stereo not shown) [Compound C41]"
observed_measurement = "lower than 55%"

[[record]]
compound = "NC(=O)COc1ccc(CNC2CCCN(c3cccnn3)C2)cc1 (stereo not shown) [Compound C50]"
observed_measurement = "lower than 55%"

[[record]]
compound = "COC(=O)c1[nH]n(-c2ccc(C(=O)O)cc2)c(=O)c1CCO [Compound C53]"
observed_measurement = "lower than 55%"

[[record]]
compound = "NC(=O)NC(=O)CCCSc1nnc(N)s1 [Compound C44]"
observed_measurement = "lower than 55%"

